Target: human CD3 expressed on cells (Jurkat cells; human T-cells of PBMC) (human, UniProt P09693 23-182; P20963 22-164)
Sequence (chain, as listed by the source, chain 1 of 4): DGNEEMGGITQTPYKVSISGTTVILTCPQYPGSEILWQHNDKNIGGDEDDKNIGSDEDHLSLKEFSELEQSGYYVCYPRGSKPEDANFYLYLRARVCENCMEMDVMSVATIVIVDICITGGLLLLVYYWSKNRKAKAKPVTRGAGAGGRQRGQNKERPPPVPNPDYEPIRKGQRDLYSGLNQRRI
Sequence (chain, as listed by the source, chain 2 of 4): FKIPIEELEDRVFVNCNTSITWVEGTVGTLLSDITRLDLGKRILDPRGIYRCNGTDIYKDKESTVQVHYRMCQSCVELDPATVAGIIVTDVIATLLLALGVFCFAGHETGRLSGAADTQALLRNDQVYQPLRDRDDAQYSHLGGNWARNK
Sequence (P09693 23-182, chain 3 of 4): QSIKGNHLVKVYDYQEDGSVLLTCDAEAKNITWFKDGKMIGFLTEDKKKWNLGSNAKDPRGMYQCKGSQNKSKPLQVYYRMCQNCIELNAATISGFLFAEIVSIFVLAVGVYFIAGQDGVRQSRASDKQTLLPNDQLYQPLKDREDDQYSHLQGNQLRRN
Sequence (P20963 22-164, chain 4 of 4): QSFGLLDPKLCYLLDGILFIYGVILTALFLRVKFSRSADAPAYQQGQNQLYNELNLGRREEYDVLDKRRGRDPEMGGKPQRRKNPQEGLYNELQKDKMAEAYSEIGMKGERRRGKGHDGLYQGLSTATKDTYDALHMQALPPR
Experiment: cell-based or functional assay
Property: EC50 [M] hPBMC Proliferation (M)

binder="H1H5801B (antibody, human IgG1, V domains shown, H1H: human IgG1 Fc) VH: QVQLVQSGGGVVQPGGSLRLSCAASGFTFDDYAMHWVRQAPGKGLEWVSLISGDGGSTYYADSVKGRFTISRDNSKNSLYLQMNSLRTEDTALYYCAKDDSSSSWYYYYYGMDVWGRGTTVTVSS VL: DIQMTQSPSSLSASVGDRVTITCRASQRISSYLNWYQQKPGKAPKVLISVASSLQSGVPSRFSGSGSGTDFTLTISSLQPEDFASYYCQQSYNTPLTFGGGTKVEIKR" property="EC50 [M] hPBMC Proliferation" unit_abbreviation=M value_reported=1.09e-12
binder="H1H5790B (antibody, human IgG1, V domains shown, H1H: human IgG1 Fc) VH: EVQLVESGGGVVQPGRSLRLSCAASGFTFSYYGMHWVRQAPGKGLEWVAVISFDGKNKYYADSVMGRFTISRDNSKNTLYLQMNSLRAEDSAVFFCARSYDILTGYGAGYSYHYGMDVWGQGTTVTVSS VL: AIQMTQSPSSLSASVGDRVTITCRASQRISSFLNWYQQKPGKAPKLLIYTASNLQNGVPSRFSGSGSGTDFTLTISSLQPEDFATYYCQQSYRTPLTFGGGTKVEIKR" property="EC50 [M] hPBMC Proliferation" unit_abbreviation=M value_reported=2.71e-12
binder="H1H5797B (antibody, human IgG1, V domains shown, H1H: human IgG1 Fc) VH: QVQLVQSGTEVKKPGASVKVSCKASGYTFTGYYMHWVRQAPGQGLEWMGWINPNSDVTNYAQKFQGRVTLTRDTSISTAYIDLSRLRSDDTAIYYCARMGDGAVFDYWGQGTLVTVSS VL: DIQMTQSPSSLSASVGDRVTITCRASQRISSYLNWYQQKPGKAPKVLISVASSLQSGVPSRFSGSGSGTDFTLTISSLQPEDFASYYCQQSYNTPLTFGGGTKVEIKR" property="EC50 [M] hPBMC Proliferation" unit_abbreviation=M value_reported=1.07e-11
